meta.source: patent US20160089371A1

# system-name: PI3K γ (Homo sapiens, UniProt P48736)
# Sequence (P48736 whole entry): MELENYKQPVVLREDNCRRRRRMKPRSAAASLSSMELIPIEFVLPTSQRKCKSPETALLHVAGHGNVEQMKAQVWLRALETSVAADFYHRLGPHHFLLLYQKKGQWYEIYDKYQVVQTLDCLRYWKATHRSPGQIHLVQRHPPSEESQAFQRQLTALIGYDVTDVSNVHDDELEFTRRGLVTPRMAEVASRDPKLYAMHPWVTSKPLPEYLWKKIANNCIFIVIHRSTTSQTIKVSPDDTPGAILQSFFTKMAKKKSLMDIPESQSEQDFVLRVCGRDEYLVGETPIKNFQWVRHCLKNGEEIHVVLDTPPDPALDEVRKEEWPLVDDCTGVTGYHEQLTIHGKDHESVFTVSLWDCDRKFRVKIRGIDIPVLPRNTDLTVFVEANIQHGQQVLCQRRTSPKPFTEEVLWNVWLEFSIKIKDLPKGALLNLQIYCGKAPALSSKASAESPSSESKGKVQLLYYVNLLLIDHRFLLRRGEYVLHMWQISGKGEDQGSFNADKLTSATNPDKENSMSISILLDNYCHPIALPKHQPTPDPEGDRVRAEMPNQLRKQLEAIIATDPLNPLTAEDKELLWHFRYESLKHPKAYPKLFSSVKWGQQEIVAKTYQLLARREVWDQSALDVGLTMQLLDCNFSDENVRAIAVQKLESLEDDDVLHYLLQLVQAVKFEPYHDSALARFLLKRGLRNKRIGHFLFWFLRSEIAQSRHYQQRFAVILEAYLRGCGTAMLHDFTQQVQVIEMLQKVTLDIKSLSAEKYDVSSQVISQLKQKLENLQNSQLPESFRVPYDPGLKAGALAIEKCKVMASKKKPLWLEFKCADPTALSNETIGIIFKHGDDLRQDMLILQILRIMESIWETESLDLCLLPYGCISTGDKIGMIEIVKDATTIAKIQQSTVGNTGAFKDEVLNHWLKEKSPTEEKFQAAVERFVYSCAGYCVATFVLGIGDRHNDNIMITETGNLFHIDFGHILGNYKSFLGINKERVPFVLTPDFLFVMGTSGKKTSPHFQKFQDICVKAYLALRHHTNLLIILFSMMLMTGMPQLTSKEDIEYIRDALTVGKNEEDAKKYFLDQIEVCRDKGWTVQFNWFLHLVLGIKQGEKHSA
pIC50: −log10 of the molar value.
Overview of reported pIC50 across a group of molecules:
recorded-endpoint: pIC50

>  <chem-smiles>
Nc1nc2cc(-c3ccc4ncc(N5CC(N6CCOCC6)C5)nc4n3)ccc2o1

>  <observed-result>
> 6.00

$$$$
>  <chem-smiles>
[2H]c1c(-c2ccc3ncc(C(=O)N4CCOCC4)n3c2)c([2H])c2nc(N)oc2c1[2H]

>  <observed-result>
> 7.00

$$$$
>  <chem-smiles>
CN1CCC(NC(=O)c2cnc3ccc(-c4ccc5oc(N)nc5c4)cn23)CC1

>  <observed-result>
> 7.00

$$$$
>  <chem-smiles>
Nc1nc2cc(-c3ccn4ncc(C(=O)N5CCOCC5)c4c3)cc(Cl)c2o1

>  <observed-result>
> 7.00

$$$$
>  <chem-smiles>
CC(C)[C@H](N)C(=O)N1CCN(c2cnc3ccc(-c4ccc5oc(N)nc5c4)cc3n2)CC1

>  <observed-result>
> 5.00

$$$$
>  <chem-smiles>
CN1CCN(CCNC(=O)c2cnc3ccc(-c4ccc5oc(N)nc5c4)cn23)CC1

>  <observed-result>
> 6.00

$$$$
>  <chem-smiles>
CN1CCC(N(C)c2ncnc3ccc(-c4ccc5oc(N)nc5c4)cc23)CC1

>  <observed-result>
> 6.00

$$$$

----------
pIC50: −log10 of the molar value.
This section lists pIC50 readings for PI3K β (Homo sapiens).

>  <chem-smiles>
CN1CCN(c2cnc3ccc(-c4ccc5nc(N)oc5c4)cn23)CC1

>  <pIC50>
< 5.00

$$$$
>  <chem-smiles>
Nc1nc2cc(-c3ccc4ncc(C(=O)N5CC(N6CC[C@@H](O)C6)C5)n4c3)ccc2o1

>  <pIC50>
< 5.00

$$$$
>  <chem-smiles>
Nc1nc2cc(-c3ccc4ncc(N5CC(N6CCOCC6)C5)nc4n3)ccc2o1

>  <pIC50>
> 5.00

$$$$

----------
pIC50: −log10 of the molar value.
// PI3K α (Homo sapiens, UniProt P42336) pIC50 records

>  <molecule>
CN1CCN(c2cnc3ccc(-c4ccc5nc(N)oc5c4)cn23)CC1 [Compound 542]

>  <system-name>
PI3K α (Homo sapiens, UniProt P42336)
Sequence (P42336 whole entry): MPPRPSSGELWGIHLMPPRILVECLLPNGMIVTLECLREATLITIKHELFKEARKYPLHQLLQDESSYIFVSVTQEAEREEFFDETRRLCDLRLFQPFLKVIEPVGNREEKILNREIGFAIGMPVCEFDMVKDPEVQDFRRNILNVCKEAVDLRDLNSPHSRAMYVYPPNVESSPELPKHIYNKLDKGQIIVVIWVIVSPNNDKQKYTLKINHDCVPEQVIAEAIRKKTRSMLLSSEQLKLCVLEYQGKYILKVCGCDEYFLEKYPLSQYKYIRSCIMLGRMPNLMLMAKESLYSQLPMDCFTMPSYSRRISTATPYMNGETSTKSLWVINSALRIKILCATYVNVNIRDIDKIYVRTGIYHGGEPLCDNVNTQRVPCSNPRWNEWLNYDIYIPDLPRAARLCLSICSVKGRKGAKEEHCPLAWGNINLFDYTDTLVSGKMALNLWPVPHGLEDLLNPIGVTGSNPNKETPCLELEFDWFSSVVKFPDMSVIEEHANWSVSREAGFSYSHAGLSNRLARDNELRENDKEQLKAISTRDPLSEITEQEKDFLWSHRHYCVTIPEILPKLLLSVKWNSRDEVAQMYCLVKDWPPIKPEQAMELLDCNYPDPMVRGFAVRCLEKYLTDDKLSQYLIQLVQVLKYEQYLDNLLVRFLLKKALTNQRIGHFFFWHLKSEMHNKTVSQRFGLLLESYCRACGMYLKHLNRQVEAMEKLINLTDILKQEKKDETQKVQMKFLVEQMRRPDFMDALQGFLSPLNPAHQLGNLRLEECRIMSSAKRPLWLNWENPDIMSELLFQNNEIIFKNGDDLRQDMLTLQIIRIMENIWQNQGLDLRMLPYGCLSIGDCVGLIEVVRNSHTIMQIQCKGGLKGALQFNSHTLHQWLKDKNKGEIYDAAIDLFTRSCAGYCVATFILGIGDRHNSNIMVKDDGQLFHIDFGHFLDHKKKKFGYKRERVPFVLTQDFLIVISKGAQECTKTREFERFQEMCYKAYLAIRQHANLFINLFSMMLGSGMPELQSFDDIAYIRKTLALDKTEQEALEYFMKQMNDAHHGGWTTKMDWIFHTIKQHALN
Sequence (P27986 whole entry partner): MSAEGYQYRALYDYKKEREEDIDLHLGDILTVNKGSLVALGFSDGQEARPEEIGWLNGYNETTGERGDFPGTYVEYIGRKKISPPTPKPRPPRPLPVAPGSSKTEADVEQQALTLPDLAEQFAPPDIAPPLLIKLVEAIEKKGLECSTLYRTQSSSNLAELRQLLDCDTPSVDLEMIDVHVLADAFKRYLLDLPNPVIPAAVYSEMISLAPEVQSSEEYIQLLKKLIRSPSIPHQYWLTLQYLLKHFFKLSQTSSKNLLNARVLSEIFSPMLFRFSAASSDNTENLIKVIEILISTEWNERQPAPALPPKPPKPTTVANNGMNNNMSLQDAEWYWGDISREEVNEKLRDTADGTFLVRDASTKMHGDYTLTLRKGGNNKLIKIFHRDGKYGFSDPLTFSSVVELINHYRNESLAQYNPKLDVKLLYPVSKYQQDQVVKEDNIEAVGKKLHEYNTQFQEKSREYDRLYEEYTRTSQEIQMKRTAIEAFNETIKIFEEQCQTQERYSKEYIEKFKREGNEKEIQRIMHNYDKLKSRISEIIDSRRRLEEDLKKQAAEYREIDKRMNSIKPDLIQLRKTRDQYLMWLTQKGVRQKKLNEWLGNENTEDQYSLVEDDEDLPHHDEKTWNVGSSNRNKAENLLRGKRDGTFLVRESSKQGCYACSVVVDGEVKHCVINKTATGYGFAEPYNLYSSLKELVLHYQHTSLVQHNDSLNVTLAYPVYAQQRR

>  <pIC50>
< 5.00

$$$$
>  <molecule>
Nc1nc2cc(-c3ccc4ncc(N[C@H]5CC[C@H](O)CC5)nc4c3)ccc2o1 [Compound 128]

>  <system-name>
PI3K α (Homo sapiens, UniProt P42336)

>  <pIC50>
> 7.00

$$$$

----------
# system-name: mTOR (Homo sapiens)
# Construct: purchased Invitrogen
# Sequence (P42345 1360-2549 limits assumed): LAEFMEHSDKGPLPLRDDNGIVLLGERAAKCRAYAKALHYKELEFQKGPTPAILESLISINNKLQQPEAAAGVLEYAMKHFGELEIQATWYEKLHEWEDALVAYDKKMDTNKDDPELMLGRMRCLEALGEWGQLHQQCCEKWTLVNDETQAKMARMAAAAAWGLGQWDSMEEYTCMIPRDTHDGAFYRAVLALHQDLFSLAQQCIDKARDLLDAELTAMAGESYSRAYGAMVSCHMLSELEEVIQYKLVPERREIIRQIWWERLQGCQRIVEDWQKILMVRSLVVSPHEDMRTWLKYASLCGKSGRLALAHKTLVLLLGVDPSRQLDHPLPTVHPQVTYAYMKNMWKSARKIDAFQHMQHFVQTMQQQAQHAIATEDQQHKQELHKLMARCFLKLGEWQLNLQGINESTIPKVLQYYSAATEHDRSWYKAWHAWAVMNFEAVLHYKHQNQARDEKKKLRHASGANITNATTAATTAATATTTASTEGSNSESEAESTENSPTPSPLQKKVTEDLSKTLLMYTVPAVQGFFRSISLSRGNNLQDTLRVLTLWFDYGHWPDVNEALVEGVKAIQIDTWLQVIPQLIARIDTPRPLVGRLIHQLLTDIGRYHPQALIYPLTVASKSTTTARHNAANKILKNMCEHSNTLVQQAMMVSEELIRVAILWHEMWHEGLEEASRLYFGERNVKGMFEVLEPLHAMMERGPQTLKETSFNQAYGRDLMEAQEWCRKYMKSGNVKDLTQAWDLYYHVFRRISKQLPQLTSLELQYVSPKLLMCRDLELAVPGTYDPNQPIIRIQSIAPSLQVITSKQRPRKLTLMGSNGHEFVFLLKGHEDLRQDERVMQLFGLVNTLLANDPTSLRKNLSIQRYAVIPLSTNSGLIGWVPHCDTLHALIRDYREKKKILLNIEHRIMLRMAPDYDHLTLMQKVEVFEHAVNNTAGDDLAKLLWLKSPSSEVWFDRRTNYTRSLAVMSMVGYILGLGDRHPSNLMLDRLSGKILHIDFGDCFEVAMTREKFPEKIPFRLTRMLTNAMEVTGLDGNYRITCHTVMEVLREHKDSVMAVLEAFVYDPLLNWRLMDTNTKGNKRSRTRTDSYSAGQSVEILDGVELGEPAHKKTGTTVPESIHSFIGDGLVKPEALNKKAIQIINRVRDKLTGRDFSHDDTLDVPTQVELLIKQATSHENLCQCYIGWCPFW
# experiment: Inhibition assay of mTOR (radiometric or LanthaScreen TR-FRET)
# Format: biochemical
# settings: Table 4, PI3K α inhibitors; read-out: mTORC IC50

>  <chem-smiles>
Nc1nc2cc(-c3ccc4ncc(N5CC(N6CCOCC6)C5)nc4n3)ccc2o1

>  <IC50>
> 10 µM

$$$$

----------
# system-name: PI3K γ (Homo sapiens, UniProt P48736)

>  <compound>
Nc1nc2cc(-c3ccc4ncc(N[C@H]5CC[C@H](O)CC5)nc4c3)ccc2o1 [Compound 128]

>  <IC50>
< 100 nM

$$$$
>  <compound>
Nc1nc2cc(-c3ccc4ncc(C(=O)N5CC(N6CC[C@@H](O)C6)C5)n4c3)ccc2o1 [Compound 470]

>  <IC50>
< 100 nM

$$$$
>  <compound>
Nc1nc2cc(-c3ccc4ncc(N5CC[C@H](N6CCOCC6)C5)nc4c3)ccc2o1 [Compound 375]

>  <IC50>
< 100 nM

$$$$
>  <compound>
Nc1nc2cc(-c3ccc4ncc(-c5cccnc5)nc4n3)ccc2o1 [Compound 567]

>  <IC50>
< 100 nM

$$$$
